Molecular target: T1, human CD98 ECD (Homo sapiens, UniProt P08195)
T1 construct: Human CD98 ECD with C-terminal His-tag
T1 sequence (P08195 with tags, fused parts or gaps): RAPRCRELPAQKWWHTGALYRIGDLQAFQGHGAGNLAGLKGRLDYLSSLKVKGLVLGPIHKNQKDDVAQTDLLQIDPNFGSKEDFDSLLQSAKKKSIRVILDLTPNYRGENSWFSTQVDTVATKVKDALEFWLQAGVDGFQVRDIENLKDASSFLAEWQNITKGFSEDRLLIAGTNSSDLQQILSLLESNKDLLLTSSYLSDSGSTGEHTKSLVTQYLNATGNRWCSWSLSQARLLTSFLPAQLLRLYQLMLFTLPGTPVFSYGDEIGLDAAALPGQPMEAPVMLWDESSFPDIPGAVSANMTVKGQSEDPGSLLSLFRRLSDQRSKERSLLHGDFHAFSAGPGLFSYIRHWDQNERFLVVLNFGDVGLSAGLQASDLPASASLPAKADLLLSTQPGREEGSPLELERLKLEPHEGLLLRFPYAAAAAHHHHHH
Test: Biacore surface plasmon resonance binding kinetics (anti-Fc capture)
Settings: huCD98 ECD
observed-property: ka (M⁻¹ s⁻¹)
Please reply with the bare figure in M⁻¹ s⁻¹ and do not write the unit itself.

Dear colleague, I am looking for the recorded ka of the following molecule: huAb109: "heavy chain variable sequence of huAb109 is provided in SEQ ID NO: 116"; "light chain variable sequence ... in SEQ ID NO: 117" (antibody, V domains shown) VH: EVQLVESGGGLVQPGGSLRLSCAASGFTFSDYTMAWVRQAPGKGLEWVATIIYDARGTYYRDAVKGRFTISRDNAKNTLYLQMNSLRAEDTAVYYCARQSDDTYYYWGYFDYWGQGTMVTVSS VL: DIVMTQTPLSLPVTPGEPASINCKSSQSLLFSGNQKNYLAWYLQKPGQSPQLLIYWASTRQSGVPDRFSGSGSGTDFTLKISRVEAEDVGIYYCQQYYSSPYTFGQGTKLEIK
160000
